Assay: Ocular tissue concentrations (aqueous humor, vitreous humor, iris, retina, choroid, cornea) after topical ocular, subcutaneous and intravitreal administration
Format: in vivo, New Zealand White rabbits
Conditions: New Zealand White, rabbit, cornea, subcutaneous, 5 mg/kg/dose, TABLE 16: Cornea, 4 hr, OD; free acid, subcutaneous 5 mg/kg/dose, Group 3; read-out: Cornea Conc. (ng/g) OD
Protocol: To measure the concentration of Compound 1 in plasma and ocular tissues following topical ocular, subcutaneous, and intravitreal administration, New Zealand White rabbits were administered Compound 1, and plasma and ocular samples were collected at pre-determined time points. […] Ocular tissue samples from both eyes of each animal were collected and weights were recorded. Plasma and ocular tissue sample concentrations of Compound 1 were determined by LC-MS/MS. […]
property.label: concentration at 4 h (ng/g)
Lab book: enter the figure in ng/g, no units written.

Query: Kindly indicate its recorded concentration at 4 h. Item: COC(=O)N[C@@H](Cc1ccccc1)C(=O)N[C@@H](Cc1ccc(NS(=O)(=O)O)cc1)c1csc(-c2cccs2)n1 [Compound 1]
Result: 10.4
